Each entry below carries its reported IC50.
- System Under Test: human Src enzyme (Homo sapiens, UniProt P12931)
- Construct: purchased Carna Biosciences, Inc. 08-173
- Sequence (P12931 whole entry): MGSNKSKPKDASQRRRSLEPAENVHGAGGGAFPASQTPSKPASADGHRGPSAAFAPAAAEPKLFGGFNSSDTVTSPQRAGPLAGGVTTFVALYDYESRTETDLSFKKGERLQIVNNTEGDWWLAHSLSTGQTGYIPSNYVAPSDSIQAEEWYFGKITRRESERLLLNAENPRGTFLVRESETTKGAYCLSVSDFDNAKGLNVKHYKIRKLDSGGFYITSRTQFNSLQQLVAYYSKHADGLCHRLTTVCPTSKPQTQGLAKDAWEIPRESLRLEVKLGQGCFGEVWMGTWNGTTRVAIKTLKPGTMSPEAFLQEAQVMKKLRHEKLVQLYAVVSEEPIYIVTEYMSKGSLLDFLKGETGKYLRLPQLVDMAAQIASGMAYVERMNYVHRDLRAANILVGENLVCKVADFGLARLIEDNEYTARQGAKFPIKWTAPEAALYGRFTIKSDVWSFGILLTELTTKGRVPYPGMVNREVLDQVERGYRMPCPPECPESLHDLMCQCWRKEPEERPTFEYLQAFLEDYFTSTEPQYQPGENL
- Protocol Text: Src enzyme inhibitory activity (time-resolved fluorometry, biotinylated peptide phosphorylation)
- Assay type: biochemical
- Recorded Conditions: biotinylated peptide phosphorylation, read-out: SRC_IC50
Quantity Name: IC50

| Molecule | System Under Test | Quantity Name | Recorded Measurement |
| --- | --- | --- | --- |
| Cc1cc(Oc2c(F)cccc2F)ncc1-n1ncc(C(=O)c2cc3cc(OC(F)F)c(N4CCCC4=O)cc3[nH]2)c1N [Example 4-21-008] | human Src enzyme (Homo sapiens, UniProt P12931) | IC50 | 25 nM |
| COc1cc2cc(C(=O)c3cnn(-c4cnc(Oc5c(F)cccc5F)cc4C)c3N)[nH]c2cc1NS(C)(=O)=O [Example 4-1-009] | human Src enzyme (Homo sapiens, UniProt P12931) | IC50 | 59 nM |
| Cc1cc2cc(C(=O)c3cnn(-c4cnc(Oc5ccccc5F)cc4C)c3N)[nH]c2cc1NS(=O)(=O)c1cc(F)cc(C#N)c1 [Example 5-1-497] | human Src enzyme (Homo sapiens, UniProt P12931) | IC50 | 660 nM |
